# System: MCF7 breast
# assay_text: NCI-60 one-dose screen, 48 h
# measurement_setup: 10 µM unless noted
The panel holds about 83,000 compounds, 20% with a hit somewhere; the sample as a whole holds those more often. Active and inactive are the calls of the source. Rule for the calls: active = growth percent below 10; inactive = the rest.
Assign a class; possible classes are yes for active, no for inactive

[[record]]
compound = "Oc1ccc(N=Nc2ccc(N=Nc3ccccc3)cc2)cc1"
cat = "no"

[[record]]
compound = "CCCCCCCCCCCCCCCCNC(=S)N/N=C/c1ccc(O)cc1O"
cat = "no"

[[record]]
compound = "CCCCCCCCCCCCCCCCC(=O)O.CCCCCCCCCCCCCCCCCC(=O)O.CCCCCCCCCCCCCCCCCC(=O)O.CCCCCCCCCCCCCCCCCC(=O)O.CCCCCCCCCCCCCCCCCC(=O)O.CO[CH-]OC12COC1CC(O)C1(C)C(O)C(OC(C)O)C3=C(C)C(OC(=O)C(O)C([NH-])c4ccccc4)CC(O)(C(OC(=O)c4ccccc4)C21)C3(C)C.[Cu+].[Zn].[Zn].[Zn].[Zn].[Zn] (stereo not drawn)"
cat = "no"

[[record]]
compound = "CCCCCCN(CCCCCC)CCC(=O)Nc1ccc(S(=O)(=O)c2ccc(NC(=O)CCN(CCCCCC)CCCCCC)cc2)cc1"
cat = "no"

[[record]]
compound = "COc1cccc(-c2cc(-c3cc4ccccc4oc3=O)nc(N)n2)c1"
cat = "no"


Ask: What was the test verdict on `O=C(O)c1ccc(-c2nn(-c3ccc(C(=O)O)cc3)cc2CNc2ccc(Br)cc2)cc1` ?
Reply: no

Ask: What was the test verdict on `Cc1cc2c(-c3nc4ccccc4[nH]3)c(O)c(O)cc2c(O)c1-c1c(C)cc2c(-c3nc4ccccc4[nH]3)c(O)c(O)cc2c1O` ?
Reply: yes

Ask: What was the test verdict on `COC(=O)[C@H](Cc1cn(C)cn1)NC(=O)[C@H](CC(=O)OCc1ccccc1)NC(=O)Nc1cc(C(F)(F)F)cc(C(F)(F)F)c1` ?
Reply: yes

Ask: What was the test verdict on CCOC(=O)C1=C(C(F)(F)F)NC(=S)NC1CN1C(=O)c2ccccc2C1=O (stereo not drawn) ?
Reply: no

Ask: What was the test verdict on `CC#Cc1nc(Nc2cc(C)[nH]n2)c2ccccc2n1` ?
Reply: yes

Ask: What was the test verdict on `COc1cc(-c2nn(-c3ccc(NC(=O)Nc4cc(C(F)(F)F)cc(C(F)(F)F)c4)cc3)cc2-c2ccncc2)ccc1Cl` ?
Reply: yes

Ask: What was the test verdict on `N#Cc1c2ncccc2c2nnc3cc(Cl)c(Cl)cc3n12` ?
Reply: no

Ask: What was the test verdict on `O=C(CCl)NC1c2ccccc2Oc2ccccc21` ?
Reply: no

Ask: What was the test verdict on COC1(OC)N=C(N)C2(C#N)C3(C(=O)Nc4ccccc43)C12C#N (stereo not drawn) ?
Reply: no

Ask: What was the test verdict on `COc1ccc(-c2nnc(SCC(=O)Nc3ccc(C(=O)/C=C/c4cc(OC)c(OC)c(OC)c4)cc3)n2-c2ccccc2)cc1OC` ?
Reply: yes

---

# System: COLO 205 colon
# assay_text: NCI-60 one-dose screen, 48 h (100 = growth as untreated, 0 = no growth, -100 = all killed)
# measurement_setup: 10 µM unless noted
# Description: Cells are grown in 96 well plates and exposed to the test compound for 48 hours. Compounds are tested at a single concentration, which is 10^-5 M for most compounds. The reported endpoint is percent growth (GI% or GIPRCNT), where numbers from 0 - 100% represent growth inhibition, and numbers from -100% - 0 represent cell death. For example, a value of 40 represents 60% growth inhibition. A value of 0 means no net growth occurred over the course of the experiment. […]
Compounds without any hit were thinned out: in the full panel of roughly 83,000, 20% have a hit.
Catalogue of compounds with associated growth
Entry rule: numbers only, all in %.

The following compounds have reported results that may help.
[[record]]
compound = "COc1ccc(/C=C2\\SC(=O)N(Cc3cc(=O)oc4ccc(OC)cc34)C2=O)cc1"
unit_spec = "%"
meas_value = 111

[[record]]
compound = "c1cc[c]([Bi]([c]2ccccc2)[c]2ccccc2)cc1"
unit_spec = "%"
meas_value = 105

[[record]]
compound = "O=C(/C=C1\\C(=O)N(Cc2ccccc2)c2ccccc21)c1ccc(OCCN2CCCCC2)cc1"
unit_spec = "%"
meas_value = -34


Ask: Identify growth associated with the compound `Oc1ccccc1/C=N/N=C/c1c(O)ccc2ccccc12`
Reply: 104

Ask: Identify growth associated with the compound `COc1cc([C@@H]2c3cc4c(cc3[C@H](O)[C@H]3COC[C@@H]23)OCO4)cc(OC)c1OC`
Reply: 96.7

Ask: Identify growth associated with the compound CCOC(=O)C1=C(c2ccccc2)NC(=O)NC1CN1C(=O)c2ccccc2C1=O (stereo not given)
Reply: 116
